Data origin, for the record: PubChem BioAssay (Tox21)

Assay Notes: qHTS assay to identify small molecule agonists of H2AX (AID 1224845)
Applied Conditions: CHO-K1 phospho-H2AX Ser139 HTRF, 3 h; series mostly up to 154 µM
Inconclusive results are not listed. Calls of active or inactive are those of the source. Calls follow the shape of the dose curve; as a rule, active = well fitted activation curve with a large enough effect in the signal ratio in the repeat runs (not every such curve was filed as active); inconclusive = weak or mixed curves; inactive = flat fitted curve, though single readings scatter; the % refers to the signal ratio.
Measure: outcome

Cc1c(OCC(F)(F)F)ccnc1CS(=O)c1nc2ccccc2[nH]1 (stereo not drawn)    inactive
C#C[C@]1(O)CC[C@H]2[C@@H]3CCc4cc(OC)ccc4[C@H]3CC[C@@]21C    inactive
CCC(C)(O)CCCC(C)C (stereo not drawn)    inactive
C=CC(C)(CCC=C(C)C)OC(C)=O (stereo not drawn)    inactive
C[C@]12CC[C@H]3[C@@H](CCC4=CC(=O)CC[C@@]43C)[C@@H]1CC[C@@H]2C(=O)CO    inactive

Okay, here is my list. What is outcome for each of these?
1. OC[C@H]1O[C@@H]2O[C@H]3[C@H](O)[C@@H](O)[C@@H](O[C@H]4[C@H](O)[C@@H](O)[C@@H](O[C@H]5[C@H](O)[C@@H](O)[C@@H](O[C@H]6[C@H](O)[C@@H](O)[C@@H](O[C@H]7[C@H](O)[C@@H](O)[C@@H](O[C@H]8[C@H](O)[C@@H](O)[C@@H](O[C@H]1[C@H](O)[C@H]2O)O[C@@H]8CO)O[C@@H]7CO)O[C@@H]6CO)O[C@@H]5CO)O[C@@H]4CO)O[C@@H]3CO
2. CCCc1c(OCCCCc2nn[nH]n2)ccc(C(C)=O)c1O
3. Cc1ncc[nH]1

Solution:
1. inactive
2. inactive
3. inactive
